IC50 by entry:
Test system: P. falciparum 3D7 growth, pLDH absorbance
run description: blood-stage malaria parasite growth potency – strain 3D7, dose response (AID 2305)

# compound, target desc, IC50
measured = [
    ("CCN(CC)CCOc1ccc(C(O)(C#CC(O)(c2ccc(Br)cc2)c2ccc(OCCN(CC)CC)cc2)c2ccc(Br)cc2)cc1 (stereo not drawn)", "P. falciparum 3D7 growth, pLDH absorbance", "620 nM"),
    ("CO/C(=C\\C=C\\c1cc2cc(Cl)c(Cl)cc2[nH]1)C(=O)NCCCN1CCN(c2cccc(O)c2)CC1", "P. falciparum 3D7 growth, pLDH absorbance", "580 nM"),
    ("CS(=O)(=O)NCCCNCc1cccc(-c2cccc(-c3nc4ccc(C(F)(F)F)cc4[nH]3)c2)c1", "P. falciparum 3D7 growth, pLDH absorbance", "470 nM"),
    ("CCc1ccc(C2CCN(CCCCNC(=O)c3ccc(NC(=O)c4ccc(Cl)cc4)cc3)CC2)cc1", "P. falciparum 3D7 growth, pLDH absorbance", "650 nM"),
    ("Cc1cccc2[nH]c(-c3cccc(-c4cccc(NC(=O)Nc5ccccc5)c4)c3)nc12", "P. falciparum 3D7 growth, pLDH absorbance", "140 nM"),
    ("COc1ccc(CNCc2cccc(-c3ccc(-c4nc5c(C)cccc5[nH]4)cc3)c2)cc1", "P. falciparum 3D7 growth, pLDH absorbance", "240 nM"),
    ("Cc1noc(=O)c2ccc(NC(=O)C(O)(CSc3ccccc3)CC(C)C)cc12 (stereo not drawn)", "P. falciparum 3D7 growth, pLDH absorbance", "720 nM"),
    ("COc1ccc(NS(=O)(=O)c2cccc(C(=O)Nc3ccc(C(F)(F)F)cc3)c2)cc1N1CCN(CC(C)C)CC1", "P. falciparum 3D7 growth, pLDH absorbance", "840 nM"),
]
